Origin of the recorded values: patent US10479780B2

- target-under-test: human Yes1 enzyme (Homo sapiens)
- Construct: made in house
- Sequence (P07947 whole entry): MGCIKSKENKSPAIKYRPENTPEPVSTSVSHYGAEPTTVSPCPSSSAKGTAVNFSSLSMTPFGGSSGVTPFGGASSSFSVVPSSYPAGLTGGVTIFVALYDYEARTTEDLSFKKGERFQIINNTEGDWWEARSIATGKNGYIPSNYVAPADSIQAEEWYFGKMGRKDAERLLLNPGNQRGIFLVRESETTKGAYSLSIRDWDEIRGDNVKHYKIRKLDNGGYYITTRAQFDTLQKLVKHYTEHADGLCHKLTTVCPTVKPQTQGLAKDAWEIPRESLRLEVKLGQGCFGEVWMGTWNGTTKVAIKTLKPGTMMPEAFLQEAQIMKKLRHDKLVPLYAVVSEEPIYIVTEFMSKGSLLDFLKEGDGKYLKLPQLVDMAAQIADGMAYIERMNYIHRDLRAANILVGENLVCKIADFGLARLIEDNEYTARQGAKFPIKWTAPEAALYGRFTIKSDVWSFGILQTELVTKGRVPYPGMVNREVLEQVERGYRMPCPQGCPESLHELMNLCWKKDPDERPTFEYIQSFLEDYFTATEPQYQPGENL
- assay: Yes1 enzyme inhibitory activity (time-resolved fluorometry, biotinylated peptide phosphorylation)
- Assay type: biochemical
- experimental-conditions: biotinylated peptide phosphorylation, read-out: YES_IC50
- Description: 1. Yes1 Enzyme Inhibitory Activity Yes1 inhibitory activity was determined based on activity of inhibiting phosphorylation reaction of a biotinylated peptide (EGPWLEEEEEAYGWMDF) using a human Yes1 enzyme prepared using a baculovirus expression system. The phosphorylated biotinylated peptide was detected by time-resolved fluorometry using an anti-phosphorylated tyrosine antibody conjugated to europium cryptate, and streptavidin conjugated to XL665, an allophycocyanin derivative. […]
parameter: IC50 (nM)

compound_structure=CC(C)N1CCC(c2cc3cc(C(=O)c4cnn(-c5ccc(Oc6ccccc6Cl)cc5F)c4N)[nH]c3cc2F)CC1 target_under_test="human Yes1 enzyme (Homo sapiens)" obs_value=1.1

(P) Cc1cnc(F)c(S(=O)(=O)Nc2cc3[nH]c(C(=O)c4cnn(-c5cnc(Oc6c(F)cccc6F)cc5C)c4N)cc3cc2C)c1
(Q) Cc1cc2cc(C(=O)c3cnn(-c4cnc(Oc5ccccc5F)cc4C)c3N)[nH]c2cc1NS(=O)(=O)c1cncc(F)c1
From the items above, decide which of P and Q has the lower IC50 reading. The response must carry the label of the picked entry.
Q

---

- target-under-test: human Lck enzyme (Homo sapiens, UniProt P06239)
- Construct: purchased Carna Biosciences, Inc. 08-170
- Sequence (P06239 whole entry): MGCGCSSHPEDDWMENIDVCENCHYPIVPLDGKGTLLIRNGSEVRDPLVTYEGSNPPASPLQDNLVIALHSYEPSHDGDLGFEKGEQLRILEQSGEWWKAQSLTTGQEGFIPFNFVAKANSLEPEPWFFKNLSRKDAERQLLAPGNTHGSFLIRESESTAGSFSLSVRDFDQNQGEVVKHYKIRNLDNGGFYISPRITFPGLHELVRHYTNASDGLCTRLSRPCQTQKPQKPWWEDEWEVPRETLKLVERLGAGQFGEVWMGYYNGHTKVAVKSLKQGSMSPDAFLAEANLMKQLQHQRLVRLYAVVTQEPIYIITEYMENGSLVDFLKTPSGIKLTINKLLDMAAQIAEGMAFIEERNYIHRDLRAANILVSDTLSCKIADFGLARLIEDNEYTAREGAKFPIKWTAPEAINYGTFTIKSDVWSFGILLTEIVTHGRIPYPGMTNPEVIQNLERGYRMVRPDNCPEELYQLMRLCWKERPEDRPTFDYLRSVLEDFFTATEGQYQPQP
- assay: Lck enzyme inhibitory activity (time-resolved fluorometry, biotinylated peptide phosphorylation)
- Type: biochemical
- experimental-conditions: biotinylated peptide phosphorylation, read-out: LCK_IC50
parameter: IC50 (µM)

A selection of reference data follows.
compound_structure=Cc1cc(Oc2ccccc2F)ccc1-n1ncc(C(=O)c2cc3cc(OCC(F)F)c(NS(=O)(=O)CCCF)cc3[nH]2)c1N target_under_test="human Lck enzyme (Homo sapiens, UniProt P06239)" obs_value=0.022
compound_structure=Cc1cc(Oc2cccc(Cl)c2)cc(F)c1-n1ncc(C(=O)c2cc3cc(Cl)c(NS(C)(=O)=O)cc3[nH]2)c1N target_under_test="human Lck enzyme (Homo sapiens, UniProt P06239)" obs_value=0.25
compound_structure=Cc1cc(Oc2ccccc2F)ccc1-n1ncc(C(=O)c2cc3cc(OC(F)F)c(NS(C)(=O)=O)cc3[nH]2)c1N target_under_test="human Lck enzyme (Homo sapiens, UniProt P06239)" obs_value=0.01
compound_structure=Cc1cc(Oc2c(F)cccc2F)ncc1-n1ncc(C(=O)c2cc3cc(OCC(F)F)c(N4C(=O)NC(C)(C)C4=O)cc3[nH]2)c1N target_under_test="human Lck enzyme (Homo sapiens, UniProt P06239)" obs_value=0.0025

(I) Cc1cc2cc(C(=O)c3cnn(-c4cnc(Oc5ccccc5F)cc4C)c3N)[nH]c2cc1NS(=O)(=O)c1cccc(C#N)n1
(II) COc1cc(F)cc(S(=O)(=O)Nc2cc3[nH]c(C(=O)c4cnn(-c5cnc(Oc6ccccc6F)cc5C)c4N)cc3cc2C)c1
Of I and II , which one carries the higher reported IC50? Please indicate the selected item by its label.
II

---

- target-under-test: human Lck enzyme (Homo sapiens, UniProt P06239)
- Construct: purchased Carna Biosciences, Inc. 08-170
- assay: Lck enzyme inhibitory activity (time-resolved fluorometry, biotinylated peptide phosphorylation)
- Format: biochemical
- experimental-conditions: biotinylated peptide phosphorylation, read-out: LCK_IC50
pIC50: −log10 of the molar value.
parameter: pIC50

(P) Cc1cc(Oc2c(F)cccc2F)ncc1-n1ncc(C(=O)c2cc3cc(OCC(F)F)c(N4CCOC4=O)cc3[nH]2)c1N
(Q) Cc1cc(Oc2ccccc2F)ncc1-n1ncc(C(=O)c2cc3cc(OC(F)F)c(NS(C)(=O)=O)cc3[nH]2)c1N
(R) Cc1cc(Oc2ccccc2F)ncc1-n1ncc(C(=O)c2cc3cc(F)c(NS(=O)(=O)c4cc(F)cc(F)c4)cc3[nH]2)c1N
Put these in order: smallest pIC50 first, largest last. Your reply should list the labels following the order given in the request.
R, Q, P
